Listed below: herbicidal effect, S (Glysine max) values for each entry.
Tested on: soybean (Glysine max)
Test: Herbicidal effect test by soil treatment
Format: in vivo
Settings: crop plant, application amount 0.8 g/a, three weeks after spraying

C#CCN1C(=O)COc2cc(F)c(N3C(=O)CC(C)CC3=O)cc21 :: 1 (Growth control rates of 5 to 20%)

Attention now turns to another entry.
(Q) Consider the compound C#CCN1C(=O)COc2cc(F)c(N3C(=O)CC(C(F)(F)F)CC3=O)cc21 . State its measured herbicidal effect, S (Glysine max).
(A) 2 (Growth control rates of 20 to 40%)

---

Tested on: barnyardgrass (Echinochloa crusgalli)
Experiment: Herbicidal effect test by soil treatment
Type: in vivo
Settings: application amount 1.6 g/a, three weeks after spraying
Outcome measure: herbicidal effect, N (Echinochloa crusgalli)

CCOC(=O)Nc1cc(N2C(=O)CC(C(F)(F)F)CC2=O)c(F)cc1Cl [1-35] :: 4 (Growth control rates of 70 to 90%)
CCS(=O)(=O)Nc1cc(N2C(=O)CC(C(F)(F)F)CC2=O)c(F)cc1Cl [1-15] :: 3 (Growth control rates of 40 to 70%)

Let us move to another entry and its herbicidal effect, N (Echinochloa crusgalli).
(Q) Supply reported herbicidal effect, N (Echinochloa crusgalli) belonging to this compound: CC(C)OC(=O)c1cc(N2C(=O)CC(C(C)C)C(C)C2=O)c(F)cc1Cl (stereo not shown) [1-5]
(A) 4 (Growth control rates of 70 to 90%)
